Assay comment: Hemolytic activity in male Sprague-Dawley rat erythrocytes assessed as concentration required for 50% hemolysis incubated for 1 hr by absorbance based method
Type: toxicity, cell-based, Erythrocyte
Non-standard residues stand in square brackets, D forms with d. Residues, ends and D or L forms follow the SMILES beside them. *: point of attachment. X1 = NC(=O)[C@H](Cc1c[nH]cn1)NC(=O)CNC(=O)[C@@H](N)CN*; Nspe = C[C@H](NCC(=O)O)c1ccccc1; Nlys = NCCCCNCC(=O)O
Please respond with reported HC50 at 1 h for every item in the list.

// query HC50 at 1 h value for entry C[C@@H](c1ccccc1)N(CC(=O)NCC(=O)NC[C@H](N)C(=O)NCC(=O)N[C@@H](Cc1c[nH]cn1)C(N)=O)C(=O)CN(CCCCN)C(=O)CN(C(=O)CN(C(=O)CN(CCCCN)C(=O)CN(C(=O)CN(C(=O)CN(CCCCN)C(=O)CN(C(=O)CN(C(=O)CNCCCCN)[C@@H](C)c1ccccc1)[C@@H](C)c1ccccc1)[C@@H](C)c1ccccc1)[C@@H](C)c1ccccc1)[C@@H](C)c1ccccc1)[C@@H](C)c1ccccc1 (H-[Nlys][Nspe][Nspe][Nlys][Nspe][Nspe][Nlys][Nspe][Nspe][Nlys][Nspe]G-X1)
// result > 100 µM

// query Please look up its HC50 at 1 h: C[C@@H](c1ccccc1)N(CC(N)=O)C(=O)CN(CCCCN)C(=O)CN(C(=O)CN(C(=O)CN(CCCCN)C(=O)CN(C(=O)CN(C(=O)CN(CCCCN)C(=O)CN(C(=O)CN(C(=O)CN(CCCCN)C(=O)[C@H](Cc1c[nH]cn1)NC(=O)CNC(=O)CN)[C@@H](C)c1ccccc1)[C@@H](C)c1ccccc1)[C@@H](C)c1ccccc1)[C@@H](C)c1ccccc1)[C@@H](C)c1ccccc1)[C@@H](C)c1ccccc1 (H-GGH[Nlys][Nspe][Nspe][Nlys][Nspe][Nspe][Nlys][Nspe][Nspe][Nlys][Nspe]-NH2)
// result 81.6 µM

###

Assay comment: Selectivity index, ratio of HC10 for hemolytic activity in male Sprague-Dawley rat erythrocytes to MIC for antibacterial activity against Escherichia coli ATCC 25922
Type: toxicity
Condition context: read-out: Selectivity Index
Non-standard residues stand in square brackets, D forms with d. Residues, ends and D or L forms follow the SMILES beside them. *: point of attachment. X3 = NC(=O)[C@H](Cc1c[nH]cn1)NC(=O)CNC(=O)[C@@H](N)CN(CCc1c[nH]c2ccccc12)*; Gly(N(CH2)2(3-indolyl)) = O=C(O)CNCCc1c[nH]c2ccccc12; Nspe = C[C@H](NCC(=O)O)c1ccccc1; Nphe = O=C(O)CNCc1ccccc1; Nlys = NCCCCNCC(=O)O
Provide the reported selectivity ratio of each item.

// query Recorded selectivity ratio of C[C@@H](c1ccccc1)N(CC(N)=O)C(=O)CN(C(=O)CN(CCCCN)C(=O)CN(Cc1ccccc1)C(=O)CN(Cc1ccccc1)C(=O)CN(CCCCN)C(=O)CN(Cc1ccccc1)C(=O)CN(Cc1ccccc1)C(=O)CN(CCCCN)C(=O)CN(CCc1c[nH]c2ccccc12)C(=O)CN(CCc1c[nH]c2ccccc12)C(=O)CN(CCCCN)C(=O)[C@H](Cc1c[nH]cn1)NC(=O)CNC(=O)CN)[C@@H](C)c1ccccc1 (H-GGH[Nlys][Gly(N(CH2)2(3-indolyl))][Gly(N(CH2)2(3-indolyl))][Nlys][Nphe][Nphe][Nlys][Nphe][Nphe][Nlys][Nspe][Nspe]-NH2) , please.
// result 1.3

// query Look at this compound and give its reported selectivity ratio. C[C@@H](c1ccccc1)N(CC(=O)N(CCCCN)CC(=O)N(CC(=O)N(CC(=O)N(CCCCN)CC(=O)N(CC(=O)N(CC(=O)N(CCCCN)CC(=O)N(CCc1c[nH]c2ccccc12)CC(=O)N(CCc1c[nH]c2ccccc12)C[C@H](N)C(=O)NCC(=O)N[C@@H](Cc1c[nH]cn1)C(N)=O)[C@@H](C)c1ccccc1)[C@@H](C)c1ccccc1)[C@@H](C)c1ccccc1)[C@@H](C)c1ccccc1)C(=O)CN(C(=O)CNCCCCN)[C@@H](C)c1ccccc1 (H-[Nlys][Nspe][Nspe][Nlys][Nspe][Nspe][Nlys][Nspe][Nspe][Nlys][Gly(N(CH2)2(3-indolyl))]-X3)
// result 4

// query I'd like to know its selectivity ratio. The compound in question is C[C@@H](c1ccccc1)N(CC(N)=O)C(=O)CN(CCCCN)C(=O)CN(C(=O)CN(C(=O)CN(CCCCN)C(=O)CN(C(=O)CN(C(=O)CN(CCCCN)C(=O)CN(C(=O)CN(C(=O)CN(CCCCN)C(=O)CNC(=O)[C@H](Cc1c[nH]cn1)NC(=O)CNC(=O)CN)[C@@H](C)c1ccccc1)[C@@H](C)c1ccccc1)[C@@H](C)c1ccccc1)[C@@H](C)c1ccccc1)[C@@H](C)c1ccccc1)[C@@H](C)c1ccccc1 (H-GGHG[Nlys][Nspe][Nspe][Nlys][Nspe][Nspe][Nlys][Nspe][Nspe][Nlys][Nspe]-NH2)
// result 2.2

// query Which measured selectivity ratio value corresponds to C[C@@H](c1ccccc1)N(CC(=O)N(CCCCN)CC(=O)N(CC(=O)N(CC(=O)N(CCCCN)CC(=O)N(CC(=O)N(CC(=O)N(CCCCN)CC(=O)N(CCc1c[nH]c2ccccc12)CC(=O)N(CCc1c[nH]c2ccccc12)CC(N)=O)[C@@H](C)c1ccccc1)[C@@H](C)c1ccccc1)[C@@H](C)c1ccccc1)[C@@H](C)c1ccccc1)C(=O)CN(C(=O)CNCCCCN)[C@@H](C)c1ccccc1 (H-[Nlys][Nspe][Nspe][Nlys][Nspe][Nspe][Nlys][Nspe][Nspe][Nlys][Gly(N(CH2)2(3-indolyl))][Gly(N(CH2)2(3-indolyl))]-NH2) ?
// result 1.2

// query What does the data say about its selectivity ratio? Entry: C[C@@H](c1ccccc1)N(CC(N)=O)C(=O)CN(C(=O)CN(CCCCN)C(=O)CN(C(=O)CN(C(=O)CN(CCCCN)C(=O)CN(C(=O)CN(C(=O)CN(CCCCN)C(=O)CN(CCc1c[nH]c2ccccc12)C(=O)CN(CCc1c[nH]c2ccccc12)C(=O)CNCCCCN)[C@@H](C)c1ccccc1)[C@@H](C)c1ccccc1)[C@@H](C)c1ccccc1)[C@@H](C)c1ccccc1)[C@@H](C)c1ccccc1
// result 2.5

// query Would you kindly share the measured selectivity ratio for C[C@@H](c1ccccc1)N(CC(=O)N(CCCCN)CC(=O)N(CC(=O)N(CC(=O)N(CCCCN)CC(=O)N(CC(=O)N(CC(N)=O)Cc1ccccc1)Cc1ccccc1)[C@@H](C)c1ccccc1)[C@@H](C)c1ccccc1)C(=O)CN(C(=O)CN(CCCCN)C(=O)CN(Cc1ccccc1)C(=O)CN(Cc1ccccc1)C(=O)CN(CCCCN)C(=O)[C@H](Cc1c[nH]cn1)NC(=O)CNC(=O)CN)[C@@H](C)c1ccccc1 (H-GGH[Nlys][Nphe][Nphe][Nlys][Nspe][Nspe][Nlys][Nspe][Nspe][Nlys][Nphe][Nphe]-NH2) ?
// result 4.5

// query Look at this compound and give its reported selectivity ratio. C[C@@H](c1ccccc1)N(CC(N)=O)C(=O)CN(CCCCN)C(=O)CN(C(=O)CN(C(=O)CN(CCCCN)C(=O)CN(C(=O)CN(C(=O)CN(CCCCN)C(=O)CN(C(=O)CN(C(=O)CNCCCCN)[C@@H](C)c1ccccc1)[C@@H](C)c1ccccc1)[C@@H](C)c1ccccc1)[C@@H](C)c1ccccc1)[C@@H](C)c1ccccc1)[C@@H](C)c1ccccc1 (H-[Nlys][Nspe][Nspe][Nlys][Nspe][Nspe][Nlys][Nspe][Nspe][Nlys][Nspe]-NH2)
// result 1.5

// query Need selectivity ratio, item C[C@@H](c1ccccc1)N(CC(=O)N(CCCCN)CC(=O)N(CC(=O)N(CC(=O)N(CCCCN)CC(=O)N(CC(=O)N(CC(=O)N(CCCCN)CC(=O)N(CCc1c[nH]c2ccccc12)CC(=O)N(CCc1c[nH]c2ccccc12)CC(N)=O)Cc1ccccc1)Cc1ccccc1)Cc1ccccc1)Cc1ccccc1)C(=O)CN(Cc1ccccc1)C(=O)CN(CCCCN)C(=O)[C@H](Cc1c[nH]cn1)NC(=O)CNC(=O)CN (H-GGH[Nlys][Nphe][Nspe][Nlys][Nphe][Nphe][Nlys][Nphe][Nphe][Nlys][Gly(N(CH2)2(3-indolyl))][Gly(N(CH2)2(3-indolyl))]-NH2)
// result 1.6

###

Assay comment: Hemolytic activity in male Sprague-Dawley rat erythrocytes at 50 uM incubated for 1 hr by absorbance based method relative to control
Assay type: toxicity, cell-based, Erythrocyte
Condition context: read-out: Activity
Non-standard residues stand in square brackets, D forms with d. Residues, ends and D or L forms follow the SMILES beside them. *: point of attachment. X1 = NC(=O)[C@H](Cc1c[nH]cn1)NC(=O)CNC(=O)[C@@H](N)CN*; Nspe = C[C@H](NCC(=O)O)c1ccccc1; Nphe = O=C(O)CNCc1ccccc1; Nlys = NCCCCNCC(=O)O
For each record, write down the corresponding hemolysis at 1 h, 50 µM.
Quick reminder: number only, in %, skip the unit.

// query Fill in: hemolysis at 1 h, 50 µM of C[C@@H](c1ccccc1)N(CC(=O)NC[C@H](N)C(=O)NCC(=O)N[C@@H](Cc1c[nH]cn1)C(N)=O)C(=O)CN(CCCCN)C(=O)CN(C(=O)CN(C(=O)CN(CCCCN)C(=O)CN(C(=O)CN(C(=O)CN(CCCCN)C(=O)CN(C(=O)CN(C(=O)CNCCCCN)[C@@H](C)c1ccccc1)[C@@H](C)c1ccccc1)[C@@H](C)c1ccccc1)[C@@H](C)c1ccccc1)[C@@H](C)c1ccccc1)[C@@H](C)c1ccccc1 (H-[Nlys][Nspe][Nspe][Nlys][Nspe][Nspe][Nlys][Nspe][Nspe][Nlys][Nspe]-X1) is ___
// result 6.22

// query Which measured hemolysis at 1 h, 50 µM value corresponds to C[C@@H](c1ccccc1)N(CC(N)=O)C(=O)CN(CCCCN)C(=O)CN(Cc1ccccc1)C(=O)CN(Cc1ccccc1)C(=O)CN(CCCCN)C(=O)CN(C(=O)CN(C(=O)CN(CCCCN)C(=O)CN(Cc1ccccc1)C(=O)CN(Cc1ccccc1)C(=O)CN(CCCCN)C(=O)CNC(=O)[C@H](Cc1c[nH]cn1)NC(=O)CNC(=O)CN)[C@@H](C)c1ccccc1)[C@@H](C)c1ccccc1 (H-GGHG[Nlys][Nphe][Nphe][Nlys][Nspe][Nspe][Nlys][Nphe][Nphe][Nlys][Nspe]-NH2) ?
// result 6.84

// query Return reported hemolysis at 1 h, 50 µM; argument: C[C@@H](c1ccccc1)N(CC(=O)N(CCCCN)CC(=O)N(CC(=O)N(CC(=O)N(CCCCN)CC(=O)N(CC(=O)N(CC(=O)N(CCCCN)CC(=O)N(CC(=O)N(CC(N)=O)Cc1ccccc1)Cc1ccccc1)Cc1ccccc1)Cc1ccccc1)Cc1ccccc1)Cc1ccccc1)C(=O)CN(Cc1ccccc1)C(=O)CN(CCCCN)C(=O)[C@H](Cc1c[nH]cn1)NC(=O)CNC(=O)CN (H-GGH[Nlys][Nphe][Nspe][Nlys][Nphe][Nphe][Nlys][Nphe][Nphe][Nlys][Nphe][Nphe]-NH2)
// result -0.22

Where do these numbers come from? They come from ChEMBL document CHEMBL5584354.
